TARGET OF ASSAY: recombinant sbHMNGT (UDP-glucose:p-hydroxymandelonitrile-glucosyltransferase) (Sorghum bicolor)
Construct: are used to amplify a 1500 bp full-length sbHMNGT insert by PCR; made in house; host or cells: E. coli JM109, vector pSP19g10L
PROTOCOL SUMMARY: Substrate specificity of recombinant sbHMNGT (TLC, 14C-UDP-glucose)
Type: biochemical
Parameters: key: ▪: indicate that a radiolabelled product was visualised after incubation with the respective aglycone substrate; □: indicate that no radiolablled products could be detected under the experimental conditions employed
CONDITION DETAILS: 1.25 mM aglycone, 100 ng recombinant sbHMNGT, 20 min at 30° C., TLC
Description: Generally a 20 μl reaction mixture including • 100 mM Tris HCl (pH 7.9), • 1–5 μM ^14C-UDP-glucose (11.0 GBq mmol^−1, Amersham LIFE SCIENCE), • 0–300 μM UDP-glucose, • 0–20 mM p-hydroxymandelonitrile (dissolved in water, freshly prepared), • 25 mM γ-gluconolactone, • 0–1 mg BSA and • 0.5–10 μl of protein preparation, is incubated at 30° C. between 2 minutes and 2 hours. […] Glucosyltransterase activity was determined by TLC using ^14C-UDP-glucose. […]
METRIC: ACTIVITY Recombinant sbHMNGT (radiolabelled glucoside product)

> print(dat)
                                    molecule  reported.measurement
 1         CC(C)(O)C#N [acetone cyanohydrin]                     □
 2   OCc1ccc(O)cc1 [p-hydroxybenzyl alcohol]                     ▪
 3  O=c1c(O)c(-c2ccc(O)c(O)c2)oc2cc(O)cc(O)c12                     □
 4              Oc1ccc(C=Cc2cc(O)cc(O)c2)cc1                     □
 5  N#CC(O)c1ccc(O)cc1 (stereo not shown) [p-hydroxymandelonitrile]                     ▪
 6  COc1cccc(CO)c1O [2-hydroxy-3-methoxybenzlalcohol]                     ▪
 7                       COc1cc(C(=O)O)ccc1O                     ▪
 8                       CC(C)=CCC/C(C)=C\CO                     ▪
 9  O=C(O)c1ccc(O)cc1 [p-hydroxybenzoic acid]                     □
10                       CC(C)=CCC/C(C)=C/CO                     ▪
11                           O=C(O)c1ccccc1O                     □
12    O=Cc1ccc(O)cc1 [p-hydroxybenzaldehyde]                     □
13      O=c1cc(-c2ccc(O)cc2)oc2cc(O)cc(O)c12                     □
14                          COc1cc(C=O)ccc1O                     ▪
15               Oc1ccc(O)cc1 [hydroquinone]                     □
16                                   CCCCCCO                     ▪
17  O=C1C[C@@H](c2ccc(O)cc2)Oc2cc(O)cc(O)c21                     □
18                        O=C(O)c1cc(O)ccc1O                     □
19                               CCC=C(C)CCO                     ▪
20       COc1ccc(-c2coc3cc(O)cc(O)c3c2=O)cc1                     □
21  O=C(O)C(O)c1ccc(O)cc1 (stereo not shown) [p-hydroxymandelic acid]                     □
22                                OCc1ccccc1                     ▪
23             CC/C=C\CCO [cis-3-hexen-1-ol]                     ▪
24        N#CC(O)c1ccccc1 (stereo not shown)                     ▪
25       CC(C)=CCCC(C)CCO (stereo not shown)                     ▪
26  O=C(O)C=Cc1ccccc1O [2-hydroxy cinnamic acid]                     □
27                               CCCC(C)=CCO                     ▪
28                            O=C(O)c1ccccc1                     ▪
29           CCC/C=C/CO [trans-2-hexen-1-ol]                     ▪
30  C[C@H]1CC[C@]2(NC1)O[C@H]1C[C@H]3[C@@H]4CC[C@H]5C[C@@H](O)CC[C@]5(C)[C@H]4CC[C@]3(C)[C@H]1[C@@H]2C                     □
31                 O=C(O)/C=C/c1ccc(O)c(O)c1                     □

---

TARGET OF ASSAY: recombinant sbHMNGT (UDP-glucose:p-hydroxymandelonitrile-glucosyltransferase) (Sorghum bicolor, UniProt Q9SBL1)
Construct: are used to amplify a 1500 bp full-length sbHMNGT insert by PCR; made in house; host or cells: E. coli JM109, vector pSP19g10L
Sequence (Q9SBL1 whole entry): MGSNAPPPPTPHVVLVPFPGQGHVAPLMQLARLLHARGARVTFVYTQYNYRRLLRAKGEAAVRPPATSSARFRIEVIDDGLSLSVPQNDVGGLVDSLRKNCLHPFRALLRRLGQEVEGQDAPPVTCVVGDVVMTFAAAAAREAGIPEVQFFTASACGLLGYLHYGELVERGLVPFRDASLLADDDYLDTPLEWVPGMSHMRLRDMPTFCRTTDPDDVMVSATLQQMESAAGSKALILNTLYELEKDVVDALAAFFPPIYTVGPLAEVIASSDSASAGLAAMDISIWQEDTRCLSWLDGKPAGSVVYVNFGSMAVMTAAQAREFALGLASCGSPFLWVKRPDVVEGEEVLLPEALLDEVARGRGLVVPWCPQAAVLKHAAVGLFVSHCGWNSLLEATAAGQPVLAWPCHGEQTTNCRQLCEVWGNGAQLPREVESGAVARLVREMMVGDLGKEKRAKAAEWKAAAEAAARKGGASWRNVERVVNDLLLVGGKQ
PROTOCOL SUMMARY: Substrate specificity of recombinant sbHMNGT (TLC, 14C-UDP-glucose)
Type: biochemical
METRIC: ability of sbHMNGT to glucosylate the aglycon

> print(dat)
                                   molecule  reported.measurement
1                          COc1cc(C=O)ccc1O           glucosylate
2                       CC(C)=CCC/C(C)=C\CO           glucosylate
3                       COc1cc(C(=O)O)ccc1O           glucosylate
4                                OCc1ccccc1           glucosylate
5  COc1cccc(CO)c1O [2-hydroxy-3-methoxybenzlalcohol]           glucosylate
6       CC(C)=CCCC(C)CCO (centres unmarked)           glucosylate
7                            O=C(O)c1ccccc1           glucosylate
8                       CC(C)=CCC/C(C)=C/CO           glucosylate
